# target.or.test.system: T1, OC2SQ (human, UniProt O95948 330-485, S364A;Q365A)
# T1 sequence: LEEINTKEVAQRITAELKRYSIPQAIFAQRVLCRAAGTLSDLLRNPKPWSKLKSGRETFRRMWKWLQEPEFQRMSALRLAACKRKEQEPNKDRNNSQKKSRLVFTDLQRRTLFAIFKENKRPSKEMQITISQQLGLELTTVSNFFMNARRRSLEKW
# assay.explanation: ITC; ITC: 1X PBS pH 7.4, 0.005% Tween-20, 1 mM beta-ME, 25 C (also 12 and 30 C for heat capacity); BLI: 1X PBS, 0.5 mM TCEP, 0.005% Tween-20
# condition: protein: recombinant; tags: His6 removed by TEV
quantity.kind: pKd
Give bare numbers, as −log10 of the molar value.

get_value(item= PEG10 promoter DNA (12mer duplex) (dsDNA) DNA 1: AGATCGATTTGC DNA 2: GCAAATCGATCT , readout=pKd) returns 7.29
